Test system: RPMI 8226
Experiment: Multiple myeloma cell growth inhibition, MTT, 72 h
Assay type: cell-based
Conditions: Homo sapiens
# reported IC50; entries follow
Write the value in µg/mL as a bare number.

{"columns": ["compound", "IC50 / µg/mL"],
 "data": [
  ["C=C1C(=O)[C@]23[C@H](OC(=O)c4ccccc4)[C@H]1CC[C@H]2[C@@]12CO[C@@]3(O)[C@@H](O)[C@@H]1C(C)(C)CCC2=O [BS-OR-001]", 0.41],
  ["C=C1C(=O)[C@]23[C@H](OC(=O)c4ccc(Cl)cc4)[C@H]1CC[C@H]2[C@@]12CO[C@@]3(O)[C@@H](O)[C@@H]1C(C)(C)CC[C@@H]2OC(C)=O [BS-OR-093]", 0.2],
  ["C=C1C(=O)[C@]23[C@H](OC(=O)c4ccc(C)cc4)[C@H]1CC[C@H]2[C@@]12CO[C@@]3(O)[C@@H](O)[C@@H]1C(C)(C)CCC2=O [BS-OR-004]", 0.31],
  ["C=C1C(=O)[C@]23[C@H](OC(=O)C4CCN(S(=O)(=O)CC)CC4)[C@H]1CC[C@H]2[C@@]12CO[C@@]3(O)[C@@H](O)[C@@H]1C(C)(C)CCC2=O [BS-OR-038]", 0.97],
  ["C=C1C(=O)[C@]23[C@H](OC(=O)c4ccncc4)[C@H]1CC[C@H]2[C@@]12CO[C@@]3(O)[C@@H](O)[C@@H]1C(C)(C)CCC2=O [BS-OR-012]", 0.92]
]}

So what's the measured IC50 for this one? C=C1C(=O)[C@]23[C@H](OC(=O)c4ccc(Cl)cc4)[C@H]1CC[C@H]2[C@@]12CO[C@@]3(O)[C@@H](O)[C@@H]1C(C)(C)CCC2=O [BS-OR-010]
0.28

So what's the measured IC50 for this one? C=C1C(=O)[C@]23[C@H](OC(=O)C4CCC(NC(=O)c5ccccn5)CC4)[C@H]1CC[C@H]2[C@@]12CO[C@@]3(O)[C@@H](O)[C@@H]1C(C)(C)CCC2=O (stereo partly shown) [BS-OR-083]
0.85

----------
# reported IC90; entries follow
System: MG-63
Test: Solid tumor cell growth inhibition, MTT, 72 h
Format: cell-based
Conditions: Homo sapiens
Write the value in µg/mL as a bare number.

These recorded examples may help you get a feel for the data.
{"columns": ["compound", "readout label", "u", "quantitative result"],
 "data": [
  ["C=C1C(=O)[C@]23[C@H](OC(=O)c4cccc(C)c4)[C@H]1CC[C@H]2[C@@]12CO[C@@]3(O)[C@@H](O)[C@@H]1C(C)(C)CCC2=O [BS-OR-008]", "IC90", "µg/mL", 0.98],
  ["C=C1C(=O)[C@]23[C@H](OC(=O)c4ccncc4)[C@H]1CC[C@H]2[C@@]12CO[C@@]3(O)[C@@H](O)[C@@H]1C(C)(C)CCC2=O [BS-OR-012]", "IC90", "µg/mL", 3.84],
  ["C=C1C(=O)[C@]23[C@H](OC(=O)C4CC4)[C@H]1CC[C@H]2[C@@]12CO[C@@]3(O)[C@@H](O)[C@@H]1C(C)(C)CCC2=O [BS-OR-017]", "IC90", "µg/mL", 1.8]
]}

So what's the measured IC90 for this one? C=C1C(=O)[C@]23[C@H](OC(=O)/C=C/c4ccccc4)[C@H]1CC[C@H]2[C@@]12CO[C@@]3(O)[C@@H](O)[C@@H]1C(C)(C)CC[C@@H]2OC(C)=O [BS-OR-094]
1

So what's the measured IC90 for this one? C=C1C(=O)[C@]23[C@H](OC(=O)C4CCN(S(=O)(=O)c5cccc([N+](=O)[O-])c5)CC4)[C@H]1CC[C@H]2[C@@]12CO[C@@]3(O)[C@@H](O)[C@@H]1C(C)(C)CCC2=O [BS-OR-037]
3.1
